# Test system: K4 kissing-loop RNA reporter;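 note: bound reporter read as fluorescence of individual clusters on recovered sequencing chips by microscopy, with normalized cluster intensities fitted with a binding model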
# Assay name: apparent KD of K4 kissing-loop reporter; higher = weaker reporter binding
# Test parameters: Eterna round: R107; input ligand: none
Give yes when the value for apparent KD of K4 kissing-loop reporter is at least 100 nM. Give no when it is less.

AUUUAAUGUAUAGAUUAUAUACAUUAUUCAGAGGAUAUGCAUUGAAGCAGAAGGCUGGGUGUAGUGAUGUUGCAGUUUUAAUUUA [whbob_SS_FMNA__2th173]: yes
UAACUCUUGCAGUGAUGUUGCAAGUAUGCUCAGGAUAUCAGGAAACUGAGAAGGGAGUUUCCUGAGCUUCUGCAAGAGCUCAGAA [KL-SSFMN-A6]: yes
AACCUACGAUCACAAUAGUGAUUGUAGGACUAGGAUAUGCUGAAAAGCAGAAGGAGUGAUGUUCCGUCAUGAAUAACAUGACAAA [FmnAX 3 #OpenEnded #K4Late #CoaxialStacking]: yes
ACGAUUUACAGAAGGAGCGUGUAUUUAUCUACAAUUUUCUUAGCGAGUGAUGUUCGUUAUACACAGGUAGGUCGCUGUAUAUCGA [JR_ExcArginiB_Sub013]: yes

Query block: Dear colleague, could you confirm whether GCAUCCUAUGCAGGAUAUUAGCAUUUGAGUGAUGUUCAGACUAGCGAAAGCUAGUCAAUUGCUGGUUAAGAAGGGCAUAGGAUGC has apparent KD of K4 kissing-loop reporter at or above 100 nM?
Result block: yes

Query block: Then what about the sequence UCUGAAUUAUCUGAUACCAGACUUUUUGUAUUUAUUAAAACUAGUGAUGUUAGUUUAUCUGUCCCUUGGCAGCAGUUUCUACAGA [JR_Nu_ExcTheophyB_Sub022] ?
Result block: no

Query block: # repeat for UGUGGAGAAUAUGAUACCAGCAGUGAGAGAGAGGAAGUAUAGUGAUGUUAUAUGAGAGAAUGCCCUUGGCAGCAUAUGUAGAAGG [SSTheophylB.F]
Result block: yes

Query block: Thanks! And AAGUACACGAUAGUGUACACCUAGUGAUGUUAGGAUAUGCAGAUAUGCAGAAGGAACAAGUCAUCUGACAAUAGUCGGAUGACAA [FmnAX 6 #OpenEnded #K4Early] ?
Result block: yes

Query block: Then what about the sequence AAGCAGUCACUCGAAGCCAUCGAAGAUGGGCGAGGACCGGUACGGCCGCCACUCGGAGUGAUGUUCCGAGGACUGCAAAAUAAAA [MatMod 4 - Jieux - Exclusion - Tryptophan A] ?
Result block: yes

Query block: Field entry: AAAAUAAGCCAGUGAUGUUGGUAUGCAGAUACCAGCGACGAAAGUCGCCCUUGGCAGCUGUGGACGUACAAAAUAAGUACGUCCU
Result block: yes

Query block: Also GUUACGCAUGGAAGGAGCGCGAAUUUAAUUAGUGAGUGAUGUUCACAUAAAAUAUAUAAUACGCAGGUAGGUCGCCAUGUGUAAC [Ex Arginine B K4 1] , if possible.
Result block: no

====

# System: MS2 coat protein
# Assay name: apparent KD of MS2 coat protein; higher = weaker reporter binding
# Test parameters: Eterna round: R107; input ligand: theophylline 2 mM
Observable: apparent KD of MS2 coat protein (nM)
State just the number; it will be interpreted in nM.

Examples with their reported apparent KD of MS2 coat protein follow.
GGGACAUCGGGAAGGAGCGCAUCCAAACCACACAUGAGGAUCACCCAUGUAUAAAUAUGCAUGCAGGUAGGUCGCCCGGUGUCUC [Ersoatus]: 117
GGCGCGAGCCAACAUGAGGAUCACCCAUGUCGAGGACCGGUACGGCCGCCACUCGAACGAGUGAAGCGCGCGCGCGCGCGCGCGC [Uaa]: 68.8
GCUGCCAUACGAAGGAGCGCUGUUGCAAUGAGGCGAACAUGAGGAUCACCCAUGUGGCAAAAGCAGGUAGGUCGCGUAUGGCAGC [EAB #17]: 23.4
UUAUAUACUACGGCCGCCACUGAACAUGAGGAUCACCCAUGUAAUGUUCAGAUUUUUUUUUUUUACAGGACCGGGUAGAAUUAAA [Tryptophan B 2]: 206

Query block: Need apparent KD of MS2 coat protein of GCACAAGAUGGAAGGAGCGCUGGAAAAGGUCACAUGAGGAUCACCCAUGUUCUCCGAACCGAGCAGGUAGGUCGCUAUCUUGUGC [#09 Same State - Arginine B] , thanks.
Result block: 50.7

Query block: Same question for UUUGACGGCGAUCUGGGUUUACCAGAUCGGCGAGGACCGGUACGGCCGCCACUCGUGUUUCUUUGACAUGAGGAUCACCCAUGUA [whbob_SS_trypto A_f2] please.
Result block: 60.5

Query block: Now consider AGACAUGAGGAUCACCCAUGUAGCAUGGAUACCAGAUGCAGAUUUAUCCCUUGGCAGCUGUGGUAAAGUGAUGCAUUGCUCCUAG [Exclusion - Theophylline A (Freestyle 6)] and answer again.
Result block: 27.1

====

# Test system: MS2 coat protein
# Assay name: apparent KD of MS2 coat protein; higher = weaker reporter binding
# Test parameters: Eterna round: R107; input ligand: tryptophan 2.4 mM
Label True when apparent KD of MS2 coat protein >= 40 nM; otherwise False.

// below: answered sequences
GAUGAACUAUUCGAUACCAGACCACAUGAGGAUCACCCAUGUGUGUUUCGUCCUUAGCCGGUCCCUUGGCAGCGAAUAGUUUAUC [#28 Exclusion-TheophyllineB]: False
CCCAACAGUGAUGCCGGUGUUGGUGGUGAUACCAGCGUCUUAUGGCGCCCUUGGCAGCACCAACAUGAGGAUCACCCAUGUGAAA [Beenerveor]: False

Query block: Could you please find out whether AUGUCAUUGGUGUAGCUGUGAAGUGGCGAUACCAGCGUGGAAACACGCCCUUGGCAGCGCCAAAACAUGAGGAUCACCCAUGUUA [#23 Exclusion-TheophyllineA] has apparent KD of MS2 coat protein that meets 40 nM or exceeds it?
Result block: False

Query block: Thanks! And AAAAUCCUACCUGAGGAUCACCCUGGUGAAGGAGCGCCCGAAAGGGCAGGUAGGUCGCACCUGAGGAUCACCCGGGUAACCUAAA [ArgEX 14 #DoubleMS2 #OpenEnded #AlternativeMS2] ?
Result block: True

Query block: Try the sequence UUUUAGCAUCGAAGGAGCGCUGGUGAAACUGACUAUGGAACAUGAGGAUCACCCAUGUGCUAGCAGGUAGGUCGCGAUGCUAUUU [SSAB NP+V+V2 #10]
Result block: False

Query block: Param item: AUUAACUGGUAAGAUACCAGAGUCGGGAUCUACAUGAGGAUCACCCAUGUUCUAAAGUCGCUCCCUUGGCAGCUUCAAUGAGUCG [theeternabot_sameState_MS2_Theo_B_27]
Result block: False

====

Catalogue of apparent KD of MS2 coat protein readings, one per entry.
# System: MS2 coat protein
# Assay name: apparent KD of MS2 coat protein, switch OFF state (with FMN for OFF switches, without FMN for ON switches); designed switch direction (-1 OFF switch, 1 ON switch): -1; higher = weaker reporter binding
# Test parameters: FMN input: 0 or 200 uM; Eterna round: R93 (includes R88 designs)
Numeric only. Scale: nM

AAAAAGCGAGGAUAUACAUAGCUAAGACAUGUAAGCGAAAAACAUGAGGAUCACCCAUGUAGAAGGCGCAAAAA [Exclusion2-02]: 16.5
AAGCUGGUAGGAUAUACUAGGGCAACUAAUGCACCGAUAGGACAUGAGGAUCACCCAUGUAGAAGGGCCAGAAA [JR_Exc002_Sub404]: 137
AGUCGGCGAGGAUAUACAUGAGGAUCACCCAUGUGAGAGAAAAAAGUGAGAAAGAAAUGUAGAAGGCGCUGACA [JL Lego Mod 1]: 36.8
CAGUACUGAGGAUAUACAUGAGGAUCACCCAUGUGAUCAAGCUACGAAAGUAGCAAAUGUAGAAGGCAGUACUG [Ex3: 809]: 31.7
AACUGACAUGAGGAUCACCCAUGUCAGGAUAUGAUUUGACGAAAAAAAAAAAGUCAUAUCAGAAGGGACAUGGG [Design 82: Sub-opt V]: 17.6

As a next step, examine the sequence that follows.
Query block: Find the measured apparent KD of MS2 coat protein: item AAAAAGGGAGGAUAUACGAAAUAGGGAAACCUAAAAAAGGGACAUGAGGAUCACCCAUGUAGAAGGCCCAAGAA [Clint Eastwood 64% 6] , target or system MS2 coat protein.
Result block: 223

====

# System: MS2 coat protein
# Assay name: apparent KD of MS2 coat protein; designed switch direction (-1 OFF switch, 1 ON switch): -1; higher = weaker reporter binding
# Test parameters: Eterna round: R95; input ligand: microRNA oligo, concentration not stated
Observable: apparent KD of MS2 coat protein (nM)
Use nM as the unit, but write only the number.

Answered examples (2):
GGUUAUUGCAAGGAUAUGCUUUUUUUUUAUAUUGCAGAAGGUGCAACAUGAGGAUCACCCAUGUUGGAGGGAUU [JR_E6_Sub021] (puzzle: Exclusion 6): 28.9
UUUAAUUUUUUUUUUUUACAAGCUUUUUGCUCGUCUUAUACAUGAGGAUCACCCAUGUGGGUAGAAAAUAAAUUAUC [JMF 91] (puzzle: Sensor v3, turn-off variant 2): 65.2

Query block: Fill in: apparent KD of MS2 coat protein of CCCUCACAUGAGGAUCACCCAUGUCAGGAUAUCUAGUCAGAUAGUGUAGCACUAAUGAAGAGAAGGGACGUAUA [Lezagees] (puzzle: Exclusion 1) is ___
Result block: 16.9

Query block: Next record, please: AUUUUGUCAGGAUAUGAGUAGUAGGAUGAGAGUGCUACUACUUAGAAGGGACAUGAGGAUCACCCAUGUCUUCC [Bring Us a Shrubbery-06] (puzzle: Exclusion 4)
Result block: 13.8

Query block: Check GUGUAGAUAGGAUAUACGAGAGUCUAGCGAAGCUAGAUUCUACAUGAGGAUCACCCAUGUAGAAGGGUCUACAC [Fiskers Ex 2 - 30] (puzzle: Exclusion 2) too.
Result block: 14.2

Query block: Same question, CUUUUGUGAGGAUAUUAGUAGUAAAAAAAUAAAAUUACUACUGAGAAGGCACAUGAGGAUCACCCAUGUUCUUC [salish99_ex4_r3_038] (puzzle: Exclusion 4) this time
Result block: 17.5
